From: patent US20150010475A1

Molecular target: T1, human CRLF2 expressed on the cell surface (BaF3-CRLF2, REH-CRLF2, MHH CALL 4, MUTZ5 cells) (human), Q9HC73
T1 chain: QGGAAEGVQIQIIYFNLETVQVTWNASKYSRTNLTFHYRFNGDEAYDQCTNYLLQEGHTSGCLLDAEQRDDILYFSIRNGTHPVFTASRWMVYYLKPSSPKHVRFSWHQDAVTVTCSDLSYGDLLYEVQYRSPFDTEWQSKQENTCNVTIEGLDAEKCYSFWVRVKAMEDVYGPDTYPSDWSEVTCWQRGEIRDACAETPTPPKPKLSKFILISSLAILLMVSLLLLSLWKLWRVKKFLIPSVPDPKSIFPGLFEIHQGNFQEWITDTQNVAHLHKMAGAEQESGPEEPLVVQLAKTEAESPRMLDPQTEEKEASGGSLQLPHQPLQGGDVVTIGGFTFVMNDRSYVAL
Assay: binding of M13 phage to BaF3-CRLF2 cells (FIG. 18)
assayEndpoint: Kd (nM)
Could you give me the number in nM? Just the number is fine.

Noted for TDAHASV (modifications not checked) [M13 filamentous phage displaying the CRLF2-binding peptide TDAHASV] : its Kd reads 27.9
